Provenance of the data: patent US20160326228A1

- EXPERIMENTAL_SYSTEM: T1, Activin A (UniProt P08476 311-426)
- T1 construct: also called ActA
- T1 sequence (looked up): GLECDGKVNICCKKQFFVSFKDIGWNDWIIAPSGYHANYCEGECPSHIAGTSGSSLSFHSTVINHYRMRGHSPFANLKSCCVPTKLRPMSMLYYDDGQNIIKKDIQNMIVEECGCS
- TEST_SUMMARY: BiaCore; receptor-Fc captured by anti-hFc antibody, ligand injected
I'd appreciate it if you could supply kon values for the items below.
Could you give me the number in M⁻¹ s⁻¹? Just the number is fine.

Data request: State its kon for this binder: ActRIIB(20-134)-hFc (Fc fusion, not shown: linker (if any) and human Fc (hFc)) GRGEAETRECIYYNANWELERTNQSGLERCEGEQDKRLHCYASWRNSSGTIELVKKGCWLDDFNCYDRQECVATEENPQVYFCCCEGNFCNERFTHLPEAGGPEVTYEPPPTAPT
Data returned: 5.94e+06

Data request: Answer with the recorded kon for the binder listed here: ActRIIB(A24N 20-134)-hFc (Fc fusion, also called A24N variant; not shown: linker (if any) and human Fc (hFc)) GRGENETRECIYYNANWELERTNQSGLERCEGEQDKRLHCYASWRNSSGTIELVKKGCWLDDFNCYDRQECVATEENPQVYFCCCEGNFCNERFTHLPEAGGPEVTYEPPPTAPT
Data returned: 3.34e+06

Data request: Respond only with kon recorded for ActRIIB(R64K 20-134)-hFc (Fc fusion, not shown: linker (if any) and human Fc (hFc)) GRGEAETRECIYYNANWELERTNQSGLERCEGEQDKRLHCYASWKNSSGTIELVKKGCWLDDFNCYDRQECVATEENPQVYFCCCEGNFCNERFTHLPEAGGPEVTYEPPPTAPT
Data returned: 6.82e+06

Data request: Return value of kon for input ActRIIB(P129S, P130R 20-134)-hFc (Fc fusion, T0017 prints a P129S P130A variant; kept as a separate molecule; not shown: linker (if any) and human Fc (hFc)) GRGEAETRECIYYNANWELERTNQSGLERCEGEQDKRLHCYASWRNSSGTIELVKKGCWLDDFNCYDRQECVATEENPQVYFCCCEGNFCNERFTHLPEAGGPEVTYEPSRTAPT , no commentary.
Data returned: 5.02e+06

Data request: Consider the binder ActRIIB(R64K 20-129)-hFc (Fc fusion, not shown: linker (if any) and human Fc (hFc)) GRGEAETRECIYYNANWELERTNQSGLERCEGEQDKRLHCYASWKNSSGTIELVKKGCWLDDFNCYDRQECVATEENPQVYFCCCEGNFCNERFTHLPEAGGPEVTYEPP . State its measured kon.
Data returned: 7.46e+06
